Reference for the values: the Human Domainome abundance scans (Beltran et al. 2025)

Provide the reported abundance fitness of each item.
B1: Protein piccolo, residues 1058 to 1114; numbered along this chain, Q9Y6V0 (parent)
chain: TCPLCKTELNIGSKDPPNFNTCTECKNQVCNLCGFNPTPHLTEIQEWLCLNCQTQRA

Variants of: B1
Test: abundance fitness (aPCA) (normalised: wild type 0, dead -1); higher = more abundant; growth selection in yeast, the domain comes from the species named
Settings: Homo sapiens
Just the number, please, no unit attached.

Query :: Please give the measured abundance fitness for this variant: G34P
Result :: -0.63

Query :: Requested field: abundance fitness. Item: Q53N
Result :: 0.118

Query :: Fill blank: measured abundance fitness of the variant N51G is ____.
Result :: -0.091

Query :: Looking for the measured abundance fitness of C33N , can you help?
Result :: -0.641

Query :: GET /values?readout=abundance fitness&item= V29R
Result :: -0.148

Query :: Entry S13V : reported abundance fitness = ?
Result :: -0.456

Query :: Please report the recorded abundance fitness for C2Y .
Result :: -1.15

Query :: Item under review: T42N . Reported abundance fitness?
Result :: 0.097

Query :: What abundance fitness value was documented for this variant, N36C ?
Result :: -0.054

Query :: Look up abundance fitness for this variant: T42E
Result :: -0.122

Query :: Tell me the measured abundance fitness of P16C , please.
Result :: -0.045

Query :: Report abundance fitness for N20I please.
Result :: -0.115

Query :: Fill in: abundance fitness of E24W is ___
Result :: -0.198

Query :: Consider the variant K26E and give its measured abundance fitness.
Result :: 0.045

Query :: Can you look up the measured abundance fitness of C2T for me?
Result :: -0.705

Query :: Looking for the measured abundance fitness of G34I , can you help?
Result :: -0.885

Query :: Which value of abundance fitness has been reported for Q45N in the records?
Result :: 0.016

Query :: Name the reported abundance fitness value associated with the variant P37C
Result :: 0.05

Query :: // lookup abundance fitness for I11V
Result :: -0.046

Query :: Fill blank: measured abundance fitness of the variant S13Y is ____.
Result :: -0.227

Query :: abundance fitness for N27Q ?
Result :: 0.112

Query :: Give the measured abundance fitness of C2D .
Result :: -0.536

Query :: Please give the measured abundance fitness for this variant: E46T
Result :: -0.083

Query :: Which value of abundance fitness has been reported for V29E in the records?
Result :: -0.178

Query :: I am curious: what abundance fitness value has been reported for Q53K ?
Result :: 0.115

Query :: Look at this variant and give its reported abundance fitness. E43V
Result :: -0.202

Query :: Using the record for I11Q , report its abundance fitness.
Result :: 0.065

Query :: If you can, please state the reported abundance fitness value of N31M .
Result :: -0.147

Query :: GET /values?readout=abundance fitness&item= V29D
Result :: -0.32

Query :: Give the measured abundance fitness of L48N .
Result :: -0.063

Query :: Please look up its abundance fitness: P17R
Result :: -0.106

Query :: Item under review: C33P . Reported abundance fitness?
Result :: -0.795

Query :: Given the entry V29H , report its measured abundance fitness.
Result :: -0.1

Query :: Recorded abundance fitness for N51F , please?
Result :: -0.306

Query :: For the variant shown here, Q53S , give the reported abundance fitness.
Result :: 0.028

Query :: Report abundance fitness for W47G please.
Result :: 0.056

Query :: May I ask what abundance fitness has been recorded for C30M ?
Result :: -0.734

Query :: Which abundance fitness is listed for V29A ?
Result :: -0.064

Query :: Endpoint output: abundance fitness of D15L . Value?
Result :: 0.015

Query :: What does the data say about its abundance fitness? Entry: F35Q
Result :: 0.25

Query :: abundance fitness for V29K ?
Result :: -0.326

Query :: What measured abundance fitness goes with L32K ?
Result :: 0.172

Query :: So what's the measured abundance fitness for this one? N51H
Result :: -0.146

Query :: # input variant: F35N ; wanted: its abundance fitness
Result :: 0.066

Query :: What value of measured abundance fitness is listed for L32D ?
Result :: -0.032

Query :: Param item = E24P ; retrieve measured abundance fitness.
Result :: -0.517
